From: PubChem BioAssay (NCI)

growth inhibition overview
assay: NCI Yeast Anticancer Drug Screen. Data for the mec2-1 strain (AID 157); conditions: S. cerevisiae mec2-1 strain, at 50.0 µM, active compounds read high
The panel holds about 79,000 compounds, 15% with a hit somewhere; the sample as a whole holds those more often.

[
  {
    "Molecule": "COC(=O)C1Cc2cc(OC)c(OC)cc2C(c2ccc(OC)c(OC)c2)C1C(N)=O (stereo unspecified)",
    "growth inhibition / %": 11.3
  },
  {
    "Molecule": "CC1CC2(CCC1OCc1ccccc1)OCCO2 (stereo unspecified)",
    "growth inhibition / %": -6.85
  },
  {
    "Molecule": "OCCCOc1ccc2ccccc2c1",
    "growth inhibition / %": 10.2
  },
  {
    "Molecule": "Cc1c2ccccc2c(C)n2c1nc1cc3ccccc3cc12",
    "growth inhibition / %": 11.9
  },
  {
    "Molecule": "O=C(N/N=C\\c1ccc(Cl)cc1Cl)c1ccc(F)cc1",
    "growth inhibition / %": -10.8
  },
  {
    "Molecule": "CC(C)(C)[Si](C)(C)OCC1CCC(n2cnc3c(N)ncnc32)O1 (stereo unspecified)",
    "growth inhibition / %": -3.1
  },
  {
    "Molecule": "NCCCOCCO",
    "growth inhibition / %": -0.5
  },
  {
    "Molecule": "COC(=O)CC(NC(=O)OCc1ccccc1)C(=O)NC(COC(C)=O)C(=O)NCC(=O)OCc1ccccc1 (stereo unspecified)",
    "growth inhibition / %": 10.4
  },
  {
    "Molecule": "O=C1Oc2ccccc2C(=O)C1=S1CCCC1",
    "growth inhibition / %": 12.1
  },
  {
    "Molecule": "N#CN=CN1CCN(c2ccccc2)CC1",
    "growth inhibition / %": -11.2
  },
  {
    "Molecule": "CCOC(=O)c1c(C(F)(F)F)oc2c1ccc1nc3nonc3nc12",
    "growth inhibition / %": 21.6
  },
  {
    "Molecule": "COc1ccc(C(=Nc2ccc(C)cc2)c2ccccc2)cc1",
    "growth inhibition / %": 7.2
  },
  {
    "Molecule": "O=[N+]([O-])c1ccc(Cl)c(F)c1Cl",
    "growth inhibition / %": -17.1
  },
  {
    "Molecule": "Cc1ccc(/C=C/C(=O)/C=C/c2ccc(C)cc2)cc1",
    "growth inhibition / %": 9.25
  },
  {
    "Molecule": "Nc1cc(C(Br)(Br)Br)nc2ccccc12",
    "growth inhibition / %": 7.45
  },
  {
    "Molecule": "O=C1Nc2ccccc2C12CCNC2Cc1ccccc1 (stereo unspecified)",
    "growth inhibition / %": -12.2
  },
  {
    "Molecule": "CSCCC(NC(=O)c1c(Cl)ccc(Cl)c1Cl)C(=O)O (stereo unspecified)",
    "growth inhibition / %": -0.75
  },
  {
    "Molecule": "CC(=O)N1CCC(=O)/C(=C/c2ccccc2)C1",
    "growth inhibition / %": 0
  },
  {
    "Molecule": "COC(=O)c1c(C)cc(C)c(C(C)=O)c1O",
    "growth inhibition / %": -14.8
  },
  {
    "Molecule": "CSc1nc2cc(S(=O)(=O)N3CCCCC3)ccc2s1",
    "growth inhibition / %": -21.8
  },
  {
    "Molecule": "COc1ccc(NC(=O)Nc2ccc(-c3ccc(NC(=O)Nc4ccc(OC)cc4)c(C)c3)cc2C)cc1",
    "growth inhibition / %": -41.4
  },
  {
    "Molecule": "O=P(O)(O)OP(=O)(O)OCC1OC(n2cnc3c(=S)nc[nH]c32)C(O)C1O (stereo unspecified)",
    "growth inhibition / %": 3.5
  },
  {
    "Molecule": "Cc1ccc(S(=O)(=O)NC(CC(C)C)C(=O)O)cc1 (stereo unspecified)",
    "growth inhibition / %": -10.6
  },
  {
    "Molecule": "Cc1cc(Cl)ccc1C1OC(=O)c2c1ccc1ccccc21 (stereo unspecified)",
    "growth inhibition / %": 6.8
  },
  {
    "Molecule": "C=CCN1C(=O)C/C(=C2/CCC(=O)N2CC=C)C1=O",
    "growth inhibition / %": -27.4
  },
  {
    "Molecule": "CC1(CN2CCCCC2)COC(c2ccccc2)(c2ccccc2)OC1",
    "growth inhibition / %": -8.85
  },
  {
    "Molecule": "COc1ccc(/C=N/NC=O)cc1OC",
    "growth inhibition / %": 6.5
  },
  {
    "Molecule": "COc1ccc2c(c1)C=C(C(C)(C)C)NS2(=O)=O",
    "growth inhibition / %": -22.6
  },
  {
    "Molecule": "CC1OS(=O)(=O)CS(=O)(=O)OC1C (stereo unspecified)",
    "growth inhibition / %": -24.9
  },
  {
    "Molecule": "CC1=C(C)CP(=O)(c2ccccc2)C1",
    "growth inhibition / %": -5.2
  },
  {
    "Molecule": "C(=N/NC(=N/N=C/c1ccccc1)N/N=C/c1ccccc1)/c1ccccc1",
    "growth inhibition / %": 23.1
  },
  {
    "Molecule": "CC(=O)OCC1OC(n2c(-c3ccc(C)cc3)cc(-c3ccccc3)c(C#N)c2=S)C(OC(C)=O)C(OC(C)=O)C1OC(C)=O (stereo unspecified)",
    "growth inhibition / %": 9.35
  },
  {
    "Molecule": "CC(C)C1OC2OCCCC2C(C(C)C)O1 (stereo unspecified)",
    "growth inhibition / %": -5.85
  },
  {
    "Molecule": "Cc1cccc(C2CCCCC2OS(C)(=O)=O)c1 (stereo unspecified)",
    "growth inhibition / %": -6.4
  },
  {
    "Molecule": "O=C(NCCO)[C@H](O)[C@@H](O)[C@H](O)[C@H](O)CO",
    "growth inhibition / %": -2
  },
  {
    "Molecule": "CN(C)C(=O)Sc1nnc(C(C)(C)C)o1",
    "growth inhibition / %": -5.9
  }
]
